# pKi per entry for Histamine H4 receptor (Homo sapiens)
pKi: −log10 of the molar value.
readout-name: pKi

- CC(C)Cc1nc(N)nc(N2CCN(C)CC2)n1: 5.08
- CN1CCN(c2nc(N)nc(Cc3ccccc3)n2)CC1: 5.12

[P] CN1CCN(C(=O)Nc2ccc(Cl)cc2)CC1
[Q] CN1CCN(c2nc(N)nc(CN3C(=O)NC(C)(C)C3=O)n2)CC1
[R] CN1CCN(c2nc(N)nc(Cc3cccc4ccccc34)n2)CC1
stdin: Kindly order the items shown according to pKi, from the highest value down. Answer by naming the labels in the order asked.
stdout: P, R, Q
